# Tested on: GES1
# assay.remarks: Antiproliferative activity against human GES-1 cells after 48 hrs by MTT assay
# Format: cell-based
# run.parameters: GES1, 48 h
test.readout: IC50

{"molecular.string": "COc1ccc(/C=N/NC(=O)c2cccc(S(=O)(=O)N3CCOCC3)c2)c(O)c1", "target.under.test": "GES1", "result": "> 80 µM"}

* * *

# System: MCF7
# assay.remarks: Antiproliferative activity against human MCF7 cells after 72 hrs by MTT assay
# Format: functional, cell-based
# run.parameters: MCF7, 72 h
pIC50: −log10 of the molar value.

{"molecular.string": "C/C(=N\\NC(=O)c1cccc(S(=O)(=O)N2CCOCC2)c1)c1cccc(N)c1", "target.under.test": "MCF7", "operator": "<", "pIC50": 4.00}
{"molecular.string": "C/C(=N\\NC(=O)c1cccc(S(=O)(=O)N2CCOCC2)c1)c1cccc(N)c1O", "target.under.test": "MCF7", "operator": "=", "pIC50": 6.00}
{"molecular.string": "COc1ccc(/C=N/NC(=O)c2cccc(S(=O)(=O)N3CCOCC3)c2)c(O)c1", "target.under.test": "MCF7", "operator": "=", "pIC50": 5.29}
{"molecular.string": "C/C(=N\\NC(=O)c1cccc(S(=O)(=O)N2CCOCC2)c1)c1ccc(O)cc1", "target.under.test": "MCF7", "operator": "<", "pIC50": 4.00}
{"molecular.string": "O=C(N/N=C/c1cccs1)c1cccc(S(=O)(=O)N2CCOCC2)c1", "target.under.test": "MCF7", "operator": "<", "pIC50": 4.00}
{"molecular.string": "C/C(=N\\NC(=O)c1cccc(S(=O)(=O)N2CCOCC2)c1)c1cccc(O)c1", "target.under.test": "MCF7", "operator": "<", "pIC50": 4.00}
{"molecular.string": "C/C(=N\\NC(=O)c1cccc(S(=O)(=O)N2CCOCC2)c1)c1ccc(F)cc1", "target.under.test": "MCF7", "operator": "<", "pIC50": 4.00}
{"molecular.string": "O=C(N/N=C/c1ccco1)c1cccc(S(=O)(=O)N2CCOCC2)c1", "target.under.test": "MCF7", "operator": "<", "pIC50": 4.00}
{"molecular.string": "O=c1[nH]cc(F)c(=O)[nH]1", "target.under.test": "MCF7", "operator": "=", "pIC50": 4.73}
{"molecular.string": "O=C(N/N=C/c1cc(Br)ccc1O)c1cccc(S(=O)(=O)N2CCOCC2)c1", "target.under.test": "MCF7", "operator": "=", "pIC50": 4.57}
{"molecular.string": "C/C(=N\\NC(=O)c1cccc(S(=O)(=O)N2CCOCC2)c1)c1cc(Br)ccc1O", "target.under.test": "MCF7", "operator": "=", "pIC50": 5.11}
{"molecular.string": "O=C(N/N=C/c1cc(Cl)ccc1O)c1cccc(S(=O)(=O)N2CCOCC2)c1", "target.under.test": "MCF7", "operator": "=", "pIC50": 4.78}
{"molecular.string": "O=C(N/N=C/c1cc(Br)cc(Br)c1O)c1cccc(S(=O)(=O)N2CCOCC2)c1", "target.under.test": "MCF7", "operator": "=", "pIC50": 4.80}
{"molecular.string": "C/C(=N\\NC(=O)c1cccc(S(=O)(=O)N2CCOCC2)c1)c1ccccc1", "target.under.test": "MCF7", "operator": "<", "pIC50": 4.00}
{"molecular.string": "O=C(N/N=C/c1ccccn1)c1cccc(S(=O)(=O)N2CCOCC2)c1", "target.under.test": "MCF7", "operator": "<", "pIC50": 4.00}
{"molecular.string": "C/C(=N\\NC(=O)c1cccc(S(=O)(=O)N2CCOCC2)c1)c1cc(O)ccc1O", "target.under.test": "MCF7", "operator": "<", "pIC50": 4.00}
{"molecular.string": "O=C(N/N=C/c1ccccc1O)c1cccc(S(=O)(=O)N2CCOCC2)c1", "target.under.test": "MCF7", "operator": "=", "pIC50": 4.54}
{"molecular.string": "C/C(=N\\NC(=O)c1cccc(S(=O)(=O)N2CCOCC2)c1)c1ccccc1O", "target.under.test": "MCF7", "operator": "=", "pIC50": 5.27}
{"molecular.string": "CCOc1cccc(/C=N/NC(=O)c2cccc(S(=O)(=O)N3CCOCC3)c2)c1O", "target.under.test": "MCF7", "operator": "=", "pIC50": 4.71}
{"molecular.string": "C/C(=N\\NC(=O)c1cccc(S(=O)(=O)N2CCOCC2)c1)c1cc(F)ccc1O", "target.under.test": "MCF7", "operator": "=", "pIC50": 5.18}
{"molecular.string": "CCN(CC)c1ccc(/C=N/NC(=O)c2cccc(S(=O)(=O)N3CCOCC3)c2)c(O)c1", "target.under.test": "MCF7", "operator": "=", "pIC50": 5.45}

* * *

# System: MGC-803
# assay.remarks: Antiproliferative activity against human MGC803 cells after 72 hrs by MTT assay
# Format: functional, cell-based
# run.parameters: MGC-803, 72 h
test.readout: IC50 (µM)

{"molecular.string": "O=C(N/N=C/c1cc(Cl)ccc1O)c1cccc(S(=O)(=O)N2CCOCC2)c1", "display.unit": "µM", "quantitative.readout": 11}
{"molecular.string": "O=c1[nH]cc(F)c(=O)[nH]1", "display.unit": "µM", "quantitative.readout": 9.24}
{"molecular.string": "C/C(=N\\NC(=O)c1cccc(S(=O)(=O)N2CCOCC2)c1)c1cc(O)ccc1O", "display.unit": "µM", "quantitative.readout": 9.09}
